- System Tested: FKBP12 (Homo sapiens, UniProt P62942)
- Sequence (P62942 whole entry): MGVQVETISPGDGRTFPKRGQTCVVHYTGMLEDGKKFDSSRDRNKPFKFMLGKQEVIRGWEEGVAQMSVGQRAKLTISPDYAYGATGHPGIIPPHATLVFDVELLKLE
- Measurement Protocol: Binding affinity of ligands with large RA (E3-ligase CRBN, PEG linker)
- Test Conditions: * = detection limit
hey, just use Yes if measured Ki is less than 0.4 nM, otherwise No

Compound: C=C[C@H]1CN([C@@H](C)c2cn(CCOCC(=O)Nc3cccc4c3C(=O)N(C3CCC(=O)NC3=O)C4=O)nn2)C(=O)[C@@H]2CCC[C@H]1N2S(=O)(=O)c1cc(Cl)cc(Cl)c1 (stereo partly shown)
System Tested: FKBP12 (Homo sapiens, UniProt P62942)
Category Label: Yes

Ask | Determine if C=C[C@H]1CN(Cc2cn(CCOCCOCC(=O)Nc3cccc4c3C(=O)N(C3CCC(=O)NC3=O)C4=O)nn2)C(=O)[C@@H]2CCC[C@H]1N2S(=O)(=O)c1cc(Cl)cc(Cl)c1 (stereo partly shown) shows Ki strictly lower than 0.4 nM.
Reply | No

Ask | Proceed to C=C[C@H]1CN([C@@H](C)c2cn(CCOCCOCCOCC(=O)Nc3cccc4c3C(=O)N(C3CCC(=O)NC3=O)C4=O)nn2)C(=O)[C@@H]2CCC[C@H]1N2S(=O)(=O)c1cc(Cl)cc(Cl)c1 (stereo partly shown)
Reply | No

Ask | Next: C=C[C@H]1CN(Cc2cn(CCOCC(=O)Nc3cccc4c3C(=O)N(C3CCC(=O)NC3=O)C4=O)nn2)C(=O)[C@@H]2CCC[C@H]1N2S(=O)(=O)c1cc(Cl)cc(Cl)c1 (stereo partly shown)
Reply | Yes

Ask | And C=C[C@H]1CN(Cc2cn(CCOCCOCCOCC(=O)Nc3cccc4c3C(=O)N(C3CCC(=O)NC3=O)C4=O)nn2)C(=O)[C@@H]2CCC[C@H]1N2S(=O)(=O)c1cc(Cl)cc(Cl)c1 (stereo partly shown) ?
Reply | No

Ask | Item: C=C[C@H]1CN([C@@H](C)c2cn(CCOCCOCCOCCOCC(=O)Nc3cccc4c3C(=O)N(C3CCC(=O)NC3=O)C4=O)nn2)C(=O)[C@@H]2CCC[C@H]1N2S(=O)(=O)c1cc(Cl)cc(Cl)c1 (stereo partly shown)
Reply | No

Ask | Same lookup for C=C[C@H]1CN(Cc2cn(CCOCCOCCOCCOCCOCC(=O)Nc3cccc4c3C(=O)N(C3CCC(=O)NC3=O)C4=O)nn2)C(=O)[C@@H]2CCC[C@H]1N2S(=O)(=O)c1cc(Cl)cc(Cl)c1 (stereo partly shown) , please.
Reply | No

Ask | How about C=C[C@H]1CN(Cc2cn(CCOCCOCCOCCOCC(=O)Nc3cccc4c3C(=O)N(C3CCC(=O)NC3=O)C4=O)nn2)C(=O)[C@@H]2CCC[C@H]1N2S(=O)(=O)c1cc(Cl)cc(Cl)c1 (stereo partly shown) ?
Reply | No

Recorded values, source patent US20230126391A1.
